Cited source for all entries: patent US9394253B2

test system: MiaPaCa-2-luc cells; assay: MTS cell viability assay, MiaPaCa-2-luc cells; assay type: cell-based; conditions: Homo sapiens, MTS assay at 72 hours
assayMetric: pIC50
On this scale, pIC50 is minus log10 of a concentration expressed in M (mol/L).

## Input Need pIC50 of CN(C)CCN(Cc1ccc(Cl)cc1)c1ccc2ccccc2n1 [Compound C10] , thanks.
## Output 4.70
